system: HL60, human leukemic cells expressing high Bcl-2 and low Bcl-XL levels; assay: Acute cytotoxicity (apoptotic activity), Alamar Blue viability, HL-60 cells; type: cell-based; details: 4 hours at 37° C.; read-out: LC50 value in HL-60 cell lines
QUANTITY_NAME: CC50

[Q] Item [O-][n+]1nc(Oc2ccccc2)ccc1Oc1ccccc1 [Example 2, 3,6-diphenoxvpyridazine-1-oxide] with HL60, human leukemic cells expressing high Bcl-2 and low Bcl-XL levels - CC50?
[A] > 500 µM

###

system: HL60, human leukemic cells expressing high Bcl-2 and low Bcl-XL levels; assay: Acute cytotoxicity (apoptotic activity), Alamar Blue viability, HL-60 cells; assay type: cell-based; conditions: Homo sapiens, HL-60; 4 hours at 37° C.; read-out: LC50 value in HL-60 cell lines
Each entry below lists one item and its recorded CC50 value.
Express it in µM; write the number only.

O=S(=O)(c1ccccc1)c1ccc(S(=O)(=O)C2CCCCC2)[n+]([O-])n1 = 32.9
[O-][n+]1nc(Sc2ccccc2)ccc1Sc1ccccc1 = 58.9
O=S(=O)(c1ccc(S(=O)(=O)C2CCCCC2)[n+]([O-])n1)C1CCCCC1 = 32.3
O=S(=O)(c1ccc(Cl)n[n+]1[O-])C1CCCCC1 = 20.2

// next item, CC50 requested
[Q] Provide the documented CC50 with HL60, human leukemic cells expressing high Bcl-2 and low Bcl-XL levels as the system for O=S(=O)(c1ccccc1)c1ccc(S(=O)(=O)c2ccccc2)[n+]([O-])n1
[A] 20.5
